tested on: A. baumannii strain 98-37-09; test: AK assay 384-well format, Prestwick library screening; format: cell-based, Acinetobacter baumannii; settings: Acinetobacter baumannii, 983709, 3 h; planktonic A. baumannii; 50 μM final drug concentration; positive cutoff 3-fold increase; read-out: AK-based Prestwick library screening result, A. baumannii (fold increase in extracellular AK activity)
Structures can show the parent of a compound that is named as a salt.

compound	fold induction at 50 µM
CN(C)CCOC(=O)C(c1ccccc1)C1(O)CCCC1 (centres unmarked) [Cyclopentolate hydrochloride]	1
COc1nc(C)nc(Cl)c1N=C1NCCN1 [Moxonidine]	1.1
NC(=O)c1ncn([C@@H]2O[C@H](CO)[C@@H](O)[C@H]2O)n1 [Ribavirin]	0.9
CC[N+](C)(CC)CCOC(=O)C1c2ccccc2Oc2ccccc21 [Methantheline bromide]	0.8
CCCOc1cc(N)ccc1C(=O)OCCN(CC)CC [Propoxycaine hydrochloride]	0.8

----------
system: S. aureus strain USA300-0114; assay: AK assay 384-well format, Prestwick library screening; format: cell-based, Staphylococcus aureus; conditions: Staphylococcus aureus, USA300, 3 h; 50 μM final drug concentration; cutoff for positive-scoring molecules 3-fold increase; read-out: AK-based Prestwick Library Screening Results, S. aureus (fold increase in extracellular AK activity)
Where a name gives a salt, the structure may show the parent alone.
Listing of recorded fold induction at 50 µM by entry.

compound	fold induction at 50 µM
CCOC(=O)O[C@]1(C(=O)COC(=O)CC)CC[C@H]2[C@@H]3CCC4=CC(=O)C=C[C@]4(C)[C@H]3[C@@H](O)C[C@@]21C [Prednicarbate]	0.4
Nc1ccc(S(=O)(=O)Nc2ccc(Cl)nn2)cc1 [Sulfachloropyridazine]	1.1
O=C(c1ccccc1)c1ccc2n1CCC2C(=O)O (stereo not shown) [Ketorolac tromethamine]	1.1
O=c1oc2ccccc2c(O)c1Cc1c(O)c2ccccc2oc1=O [Dicumarol]	1.3
c1ccc2c(c1)CCCC2C1=NCCN1 (stereo not shown) [Tetrahydrozoline hydrochloride]	1.1
Cn1cc[nH]c1=S [Methimazole]	1
CCCOc1ccc(C(=O)OCCN(CC)CC)cc1N [Proparacaine hydrochloride]	1.2
COc1cc2ccc(=O)oc2cc1O [Scopoletin]	0.3
COc1ccc(-c2cc(=O)c3c(O)cc(O)cc3o2)cc1 [Acacetin]	0.7
CN(C)CCCN1c2ccccc2Sc2ccccc21 [Promazine hydrochloride]	1.4
CN1CCN(C(c2ccccc2)c2ccc(Cl)cc2)CC1 (stereo not shown) [Chlorcyclizine hydrochloride]	1.2
O=C(O)CN(CCN(CC(=O)O)CC(=O)O)CCN(CC(=O)O)CC(=O)O [Pentetic acid]	1.4
CNC(=C[N+](=O)[O-])NCCSCc1csc(CN(C)C)n1 [Nizatidine]	1.2

----------
tested on: E. faecium; assay: AK assay 384-well format, Prestwick library screening; assay type: cell-based, Enterococcus faecium; conditions: Enterococcus faecium, 3 h; planktonic E. faecium; 50 μM final drug concentration; positive cutoff 3-fold increase; read-out: AK-based Prestwick library screening result, E. faecium (fold increase in extracellular AK activity)
Where a name gives a salt, the structure may show the parent alone.

compound	fold induction at 50 µM
CN(C)CCOC(=O)C(c1ccccc1)C1(O)CCCC1 (stereo not drawn) [Cyclopentolate hydrochloride]	1
CCCNC(C)(C)COC(=O)c1ccccc1 [Meprylcaine hydrochloride]	0.9
Nc1ccc(O)c(C(=O)O)c1	0.9
CCCC1C(=O)N2C(N(C)C)=Nc3ccc(C)cc3N2C1=O (stereo not drawn)	1
O=C(CCNNC(=O)c1ccncc1)NCc1ccccc1 [Nialamide]	1.1
COCCCC/C(=N\OCCN)c1ccc(C(F)(F)F)cc1 [Fluvoxamine maleate]	0.8
COc1ccc2c(c1)C(=O)N(CCc1ccc(S(=O)(=O)NC(=O)NC3CCCCC3)cc1)C(=O)C2(C)C	0.9
Nc1ccn([C@H]2CC[C@@H](CO)O2)c(=O)n1	1.1
COc1nc(C)nc(Cl)c1N=C1NCCN1	0.9
